test system: T1, human TREM2 (triggering receptor expressed on myeloid cells 2) (human) (UniProt Q9NZC2)
T1 sequence (looked up): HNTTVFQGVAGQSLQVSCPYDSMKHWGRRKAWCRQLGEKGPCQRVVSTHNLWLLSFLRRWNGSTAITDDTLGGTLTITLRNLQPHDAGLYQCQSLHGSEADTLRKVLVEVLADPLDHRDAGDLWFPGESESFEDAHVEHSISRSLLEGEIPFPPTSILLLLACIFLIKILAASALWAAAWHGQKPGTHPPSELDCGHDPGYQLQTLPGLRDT
measurement notes: 1st screen, 110 nM Ab
value type: Binding Signal (fold over 6E7 parental antibody) (fold)
API: value field is a number in fold; no unit string.

Use the examples below as a reference point.
6E7 antibody affinity modulation variant V20 (antibody, V domains shown) VH: EVQLVQSGAEVKKPGESLKISCKGSGYSFTSYWIAWVRQMPGKGLEWMGRIYPGDSDTRYSPSFQGQVTISADKSISTAYLQWSSLKASDTAMYFCARQRTFYYDSSDYFDYWGQGTLVTVSS VL: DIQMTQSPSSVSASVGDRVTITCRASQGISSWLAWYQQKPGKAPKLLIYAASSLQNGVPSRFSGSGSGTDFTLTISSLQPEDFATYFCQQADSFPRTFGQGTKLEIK :: 0.18
6E7 antibody affinity modulation variant V32 (antibody, V domains shown) VH: EVQLVQSGAEVKKPGESLKISCKGSGYSFTSYWIAWVRQMPGKGLEWMGIIYPGDSDTRYSNSFQGQVTISADKSISTAYLQWSSLKASDTAMYFCARQRTFYYDSSDYFDYWGQGTLVTVSS VL: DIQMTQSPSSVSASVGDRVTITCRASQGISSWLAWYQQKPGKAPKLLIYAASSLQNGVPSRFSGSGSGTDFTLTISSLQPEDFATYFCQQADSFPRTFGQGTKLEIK :: 0.82
6E7 antibody affinity modulation variant V91 (antibody, V domains shown) VH: EVQLVQSGAEVKKPGESLKISCKGSGYSFTSYWIAWVRQMPGKGLEWMGIIYPDDSDTRYSPSFQGQVTISADKSISTAYLQWSSLKASDTAMYFCARQRTFYYDSSDYFDYWGQGTLVTVSS VL: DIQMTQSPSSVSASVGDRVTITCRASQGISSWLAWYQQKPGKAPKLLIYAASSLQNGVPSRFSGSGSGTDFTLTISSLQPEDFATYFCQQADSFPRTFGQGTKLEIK :: 0.25
6E7 antibody affinity modulation variant V43 (antibody, V domains shown) VH: EVQLVQSGAEVKKPGESLKISCKGSGYSFTSYWIAWVRQMPGKGLEWMGIIYPGDSGTRYSPSFQGQVTISADKSISTAYLQWSSLKASDTAMYFCARQRTFYYDSSDYFDYWGQGTLVTVSS VL: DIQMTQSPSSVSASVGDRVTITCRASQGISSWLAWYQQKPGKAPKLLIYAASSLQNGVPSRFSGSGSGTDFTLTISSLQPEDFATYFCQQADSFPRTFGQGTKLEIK :: 0.2

Now examine the next entry.
## Input Answer with the recorded Binding Signal (fold over 6E7 parental antibody) for the binder listed here: 6E7 antibody affinity modulation variant V68 (antibody, V domains shown) VH: EVQLVQSGAEVKKPGESLKISCKGSGYSFTSYWIAWVRQMPGKGLEWMGIIYPGDSDTRYSPSFQGQVTISADKSISTAYLQWSSLKASDTAMYFCARQRTFRYDSSDYFDYWGQGTLVTVSS VL: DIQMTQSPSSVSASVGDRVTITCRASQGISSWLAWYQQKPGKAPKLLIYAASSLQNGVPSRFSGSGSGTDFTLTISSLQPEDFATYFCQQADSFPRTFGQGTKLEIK
## Output 0.44
